tested on: HeLa Kyoto; assay: thermal stability score vs G1/S (z-score of summed log2 fold changes over temperatures); higher = more thermally stable than in G1/S; conditions: cell cycle stage: early G1 (4.5 h after nocodazole release)
Recorded measurements of thermal stability score, one per entry

Recorded results for 2 sequences are shown here.
SEQUENCE CHAIN	thermal stability score
MAQRGGARRPRGDRERLGSRLRALRPGREPRQSEPPAQRGPPPSGRPPARSTASGHDRPTRGAAAGARRPRMKKKTRRRSTRSEELTRSEELTLSEEATWSEEATQSEEATQGEEMNRSQEVTRDEESTRSEEVTREEMAAAGLTVTVTHSNEKHDLHVTSQQGSSEPVVQDLAQVVEEVIGVPQSFQKLIFKGKSLKEMETPLSALGIQDGCRVMLIGKKNSPQEEVELKKLKHLEKSVEKIADQLEELNKELTGIQQGFLPKDLQAEALCKLDRRVKATIEQFMKILEEIDTLILPENFKDSRLKRKGLVKKVQAFLAECDTVEQNICQETERLQSTNFALAE [BAG1]	0.492
MGVQPPNFSWVLPGRLAGLALPRLPAHYQFLLDLGVRHLVSLTERGPPHSDSCPGLTLHRLRIPDFCPPAPDQIDRFVQIVDEANARGEAVGVHCALGFGRTGTMLACYLVKERGLAAGDAIAEIRRLRPGSIETYEQEKAVFQFYQRTK [DUSP23]	0.571

Could you now look at the following sequence, please?
Query: Given MSHTEVKLKIPFGNKLLDAVCLVPNKSLTYGIILTHGASGDMNLPHLMSLASHLASHGFFCLRFTCKGLNIVHRIKAYKSVLNYLKTSGEYKLAGVFLGGRSMGSRAAASVMCHIEPDDGDDFVRGLICISYPLHHPKQQHKLRDEDLFRLKEPVLFVSGSADEMCEKNLLEKVAQKMQAPHKIHWIEKANHSMAVKGRSTNDVFKEINTQILFWIQEITEMDKKCH [TEX30] , respond with its thermal stability score.
Result: 0.36

====

tested on: HeLa Kyoto; assay: solubility in G1/S (NP-40 vs SDS abundance) (log2 ratio); higher = more soluble; conditions: cell cycle stage: G1/S
READOUT: solubility in G1/S (log2)
Keep it simple and answer with nothing but the number.

SEQUENCE CHAIN	RESULT VALUE
MNGTRNWCTLVDVHPEDQAAGSVDILRLTLQGELTGDELEHIAQKAGRKTYAMVSSHSAGHSLASELVESHDGHEEIIKVYLKGRSGDKMIHEKNINQLKSEVQYIQEARNCLQKLREDISSKLDRNLGDSLHRQEIQVVLEKPNGFSQSPTALYSSPPEVDTCINEDVESLRKTVQDLLAKLQEAKRQHQSDCVAFEVTLSRYQREAEQSNVALQREEDRVEQKEAEVGELQRRLLGMETEHQALLAKVREGEVALEELRSNNADCQAEREKAATLEKEVAGLREKIHHLDDMLKSQQRKVRQMIEQLQNSKAVIQSKDATIQELKEKIAYLEAENLEMHDRMEHLIEKQISHGNFSTQARAKTENPGSIRISKPPSPKPMPVIRVVET [TUFT1]	0.415

Could you now look at the following sequence, please?
Query: Given MQIIRHSEQTLKTALISKNPVLVSQYEKLNAGEQRLMNEAFQPASDLFGPITLHSPSDWITSHPEAPQDFEQFFSDPYRKTPSPNKRSIYIQSIGSLGNTRIISEEYIKWLTGYCKAYFYGLRVKLLEPVPVSVTRCSFRVNENTHNLQIHAGDILKFLKKKKPEDAFCVVGITMIDLYPRDSWNFVFGQASLTDGVGIFSFARYGSDFYSMHYKGKVKKLKKTSSSDYSIFDNYYIPEITSVLLLRSCKTLTHEIGHIFGLRHCQWLACLMQGSNHLEEADRRPLNLCPICLHKLQCAVGFSIVERYKALVRWIDDESSDTPGATPEHSHEDNGNLPKPVEAFKEWKEWIIKCLAVLQK [AMZ2] , respond with its solubility in G1/S (log2).
Result: 0.00677

====

system: HeLa Kyoto; experiment: thermal stability score vs G1/S (z-score of summed log2 fold changes over temperatures); higher = more thermally stable than in G1/S; details: cell cycle stage: early G1 (4.5 h after nocodazole release)
READOUT: thermal stability score
Keep it simple and answer with nothing but the number.

Recorded results for 2 sequences are shown here.
SEQUENCE CHAIN	thermal stability score
MAAGIVASRRLRDLLTRRLTGSNYPGLSISLRLTGSSAQEEASGVALGEAPDHSYESLRVTSAQKHVLHVQLNRPNKRNAMNKVFWREMVECFNKISRDADCRAVVISGAGKMFTAGIDLMDMASDILQPKGDDVARISWYLRDIITRYQETFNVIERCPKPVIAAVHGGCIGGGVDLVTACDIRYCAQDAFFQVKEVDVGLAADVGTLQRLPKVIGNQSLVNELAFTARKMMADEALGSGLVSRVFPDKEVMLDAALALAAEISSKSPVAVQSTKVNLLYSRDHSVAESLNYVASWNMSMLQTQDLVKSVQATTENKELKTVTFSKL [ECH1]	-1.52
MAEGNTLISVDYEIFGKVQGVFFRKHTQAEGKKLGLVGWVQNTDRGTVQGQLQGPISKVRHMQEWLETRGSPKSHIDKANFNNEKVILKLDYSDFQIVK [ACYP1]	0.389

Query: Give thermal stability score for this entry on HeLa Kyoto: MSSTLAKIAEIEAEMARTQKNKATAHHLGLLKARLAKLRRELITPKGGGGGGPGEGFDVAKTGDARIGFVGFPSVGKSTLLSNLAGVYSEVAAYEFTTLTTVPGVIRYKGAKIQLLDLPGIIEGAKDGKGRGRQVIAVARTCNLILIVLDVLKPLGHKKIIENELEGFGIRLNSKPPNIGFKKKDKGGINLTATCPQSELDAETVKSILAEYKIHNADVTLRSDATADDLIDVVEGNRVYIPCIYVLNKIDQISIEELDIIYKVPHCVPISAHHRWNFDDLLEKIWDYLKLVRIYTKPKGQLPDYTSPVVLPYSRTTVEDFCMKIHKNLIKEFKYALVWGLSVKHNPQKVGKDHTLEDEDVIQIVKK [DRG1]
Result: -0.58

====

system: HeLa Kyoto; assay: solubility change mitosis vs G1/S (difference of NP-40 vs SDS log2 ratios) (log2 ratio difference); higher = more soluble in mitosis
Recorded measurements of solubility change mitosis (log2), one per entry
Keep it simple and answer with nothing but the number.

Recorded results for 3 substances are shown here.
SUBSTANCE	solubility change mitosis (log2)
MAGPELLLDSNIRLWVVLPIVIITFFVGMIRHYVSILLQSDKKLTQEQVSDSQVLIRSRVLRENGKYIPKQSFLTRKYYFNNPEDGFFKKTKRKVVPPSPMTDPTMLTDMMKGNVTNVLPMILIGGWINMTFSGFVTTKVPFPLTLRFKPMLQQGIELLTLDASWVSSASWYFLNVFGLRSIYSLILGQDNAADQSRMMQEQMTGAAMAMPADTNKAFKTEWEALELTDHQWALDDVEEELMAKDLHFEGMFKKELQTSIF [EMC3]	-0.25
ARHGEF12	-0.0996
MGHPPLLPLLLLLHTCVPASWGLRCMQCKTNGDCRVEECALGQDLCRTTIVRLWEEGEELELVEKSCTHSEKTNRTLSYRTGLKITSLTEVVCGLDLCNQGNSGRAVTYSRSRYLECISCGSSDMSCERGRHQSLQCRSPEEQCLDVVTHWIQEGEEGRPKDDRHLRGCGYLPGCPGSNGFHNNDTFHFLKCCNTTKCNEGPILELENLPQNGRQCYSCKGNSTHGCSSEETFLIDCRGPMNQCLVATGTHEPKNQSYMVRGCATASMCQHAHLGDAFSMNHIDVSCCTKSGCNHPDLDVQYRSGAAPQPGPAHLSLTITLLMTARLWGGTLLWT [PLAUR]	-0.232

Could you now look at the following substance, please?
Query: Given MGRIFLDHIGGTRLFSCANCDTILTNRSELISTRFTGATGRAFLFNKVVNLQYSEVQDRVMLTGRHMVRDVSCKNCNSKLGWIYEFATEDSQRYKEGRVILERALVRESEGFEEHVPSDNS [YPEL5] , respond with its solubility change mitosis (log2).
Result: -0.00616

====

tested on: HeLa Kyoto; test: thermal stability score vs G1/S (z-score of summed log2 fold changes over temperatures); higher = more thermally stable than in G1/S; settings: cell cycle stage: mitosis
READOUT: thermal stability score
Keep it simple and answer with nothing but the number.

SEQUENCE CHAIN	thermal stability score
MCAARLAAAAAAAQSVYAFSARPLAGGEPVSLGSLRGKVLLIENVASLUGTTVRDYTQMNELQRRLGPRGLVVLGFPCNQFGHQENAKNEEILNSLKYVRPGGGFEPNFMLFEKCEVNGAGAHPLFAFLREALPAPSDDATALMTDPKLITWSPVCRNDVAWNFEKFLVGPDGVPLRRYSRRFQTIDIEPDIEALLSQGPSCA [GPX1]	-0.307
MAGDSEQTLQNHQQPNGGEPFLIGVSGGTASGKSSVCAKIVQLLGQNEVDYRQKQVVILSQDSFYRVLTSEQKAKALKGQFNFDHPDAFDNELILKTLKEITEGKTVQIPVYDFVSHSRKEETVTVYPADVVLFEGILAFYSQEVRDLFQMKLFVDTDADTRLSRRVLRDISERGRDLEQILSQYITFVKPAFEEFCLPTKKYADVIIPRGADNLVAINLIVQHIQDILNGGPSKRQTNGCLNGYTPSRKRQASESSSRPH [UCK2]	-1.36

Could you now look at the following sequence, please?
Query: Given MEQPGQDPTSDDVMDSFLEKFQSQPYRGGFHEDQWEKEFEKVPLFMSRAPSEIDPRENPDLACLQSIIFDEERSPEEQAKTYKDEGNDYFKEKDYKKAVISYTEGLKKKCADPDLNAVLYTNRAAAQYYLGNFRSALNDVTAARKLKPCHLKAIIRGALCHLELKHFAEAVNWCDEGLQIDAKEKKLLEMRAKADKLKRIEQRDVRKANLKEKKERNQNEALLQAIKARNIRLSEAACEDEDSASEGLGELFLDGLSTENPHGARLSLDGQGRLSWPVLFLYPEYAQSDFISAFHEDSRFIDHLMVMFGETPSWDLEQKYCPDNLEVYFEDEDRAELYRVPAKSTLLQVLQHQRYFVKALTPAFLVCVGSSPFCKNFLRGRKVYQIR [TTC4] , respond with its thermal stability score.
Result: 0.287
